Measured values drawn from patent US4560662A for this set.

Consider the following compounds; for each one, report its half-life.
Experiment notes: physchem
Type: physicochemical
Stated conditions: acidic environment, pH 3; read-out: t 1/2

Substance smiles	half-life
CC[C@H]1OC(=O)[C@H](C)[C@@H](O[C@H]2C[C@H](OC)[C@@H](O)[C@H](C)O2)[C@H](C)[C@@H](O[C@@H]2O[C@H](C)C[C@H](N(C)C)[C@H]2O)[C@](C)(O)C[C@@H](C)C(=O)[C@H](C)[C@@H](O)[C@H]1C	> 100 h

Dear reader, for each entry below, please note its half-life.
1. CC[C@H]1OC(=O)[C@H](C)[C@@H](O[C@H]2C[C@H](OC)[C@@H](O)[C@H](C)O2)[C@H](C)[C@@H](O[C@@H]2O[C@H](C)C[C@H](N(C)C)[C@H]2O)[C@](C)(O)C[C@](C)(O)C(=O)[C@H](C)[C@@H](O)[C@H]1C
2. CO[C@H]1C[C@H](O[C@H]2[C@H](C)[C@@H](O[C@@H]3O[C@H](C)C[C@H](N(C)C)[C@H]3O)[C@](C)(O)C[C@@H](C)C(=O)[C@H](C)[C@@H](O)[C@@H](C)[C@@H](CCO)OC(=O)[C@@H]2C)O[C@@H](C)[C@@H]1O

Result string:
["> 100 h", "> 100 h"]

----------
Consider the following compounds; for each one, report its MIC.
System: Streptococcus faecalis sub. zymogenes ATCC 12958
Experiment notes: Bacteriostatic power in solid medium (MIC), aerobic Gram positive
Assay type: cell-based
Stated conditions: Enterococcus faecalis, ATCC12958, read-out: minimum inhibiting concentration
Give bare numbers, in µg/mL.

Compound	Target entity	MIC, µg/mL
CC[C@H]1OC(=O)[C@H](C)[C@@H](O[C@H]2C[C@H](OC)[C@@H](O)[C@H](C)O2)[C@H](C)[C@@H](O[C@@H]2O[C@H](C)C[C@H](N(C)C)[C@H]2O)[C@](C)(O)C[C@](C)(O)C(=O)[C@H](C)[C@@H](O)[C@H]1C	Streptococcus faecalis sub. zymogenes ATCC 12958	0.78
CC[C@H]1OC(=O)[C@H](C)[C@@H](O[C@H]2C[C@H](OC)[C@@H](O)[C@H](C)O2)[C@H](C)[C@@H](O[C@@H]2O[C@H](C)C[C@H](N(C)C)[C@H]2O)[C@](C)(O)C[C@@H](C)C(=O)[C@H](C)[C@@H](O)[C@H]1C	Streptococcus faecalis sub. zymogenes ATCC 12958	0.78
CC[C@H]1OC(=O)[C@H](C)[C@@H](O[C@H]2C[C@@](C)(OC)[C@@H](O)[C@H](C)O2)[C@H](C)[C@@H](O[C@@H]2O[C@H](C)C[C@H](N(C)C)[C@H]2O)[C@](C)(O)C[C@@H](C)C(=O)[C@H](C)[C@@H](O)[C@]1(C)O [Erythromycin A, reference compound]	Streptococcus faecalis sub. zymogenes ATCC 12958	0.195

Okay, now this compound:
Query string: For the compound shown here, CO[C@H]1C[C@H](O[C@H]2[C@H](C)[C@@H](O[C@@H]3O[C@H](C)C[C@H](N(C)C)[C@H]3O)[C@](C)(O)C[C@@H](C)C(=O)[C@H](C)[C@@H](O)[C@@H](C)[C@@H](CCO)OC(=O)[C@@H]2C)O[C@@H](C)[C@@H]1O , give the reported MIC.
Result string: 3.12

----------
Consider the following molecules; for each one, report its MIC.
Tested on: Acholeplasma laidlawii ATCC 23206
Experiment notes: Bacteriostatic power in solid medium (MIC), aerobic Gram negative
Type: cell-based
Stated conditions: Acholeplasma laidlawii, ATCC23206, read-out: minimum inhibiting concentration
One number for each entry, in µg/mL.

In the examples that follow, each entry is paired with its recorded MIC.
Molecule	MIC [µg/mL]
CO[C@H]1C[C@H](O[C@H]2[C@H](C)[C@@H](O[C@@H]3O[C@H](C)C[C@H](N(C)C)[C@H]3O)[C@](C)(O)C[C@@H](C)C(=O)[C@H](C)[C@@H](O)[C@@H](C)[C@@H](CCO)OC(=O)[C@@H]2C)O[C@@H](C)[C@@H]1O [P 15150]	6.25
CC[C@H]1OC(=O)[C@H](C)[C@@H](O[C@H]2C[C@@](C)(OC)[C@@H](O)[C@H](C)O2)[C@H](C)[C@@H](O[C@@H]2O[C@H](C)C[C@H](N(C)C)[C@H]2O)[C@](C)(O)C[C@@H](C)C(=O)[C@H](C)[C@@H](O)[C@]1(C)O [Erythromycin A, reference compound]	0.097
CC[C@H]1OC(=O)[C@H](C)[C@@H](O[C@H]2C[C@H](OC)[C@@H](O)[C@H](C)O2)[C@H](C)[C@@H](O[C@@H]2O[C@H](C)C[C@H](N(C)C)[C@H]2O)[C@](C)(O)C[C@@H](C)C(=O)[C@H](C)[C@@H](O)[C@H]1C [P 15149]	12.5

Okay, now this molecule:
Query string: For the molecule shown here, CC[C@H]1OC(=O)[C@H](C)[C@@H](O[C@H]2C[C@H](OC)[C@@H](O)[C@H](C)O2)[C@H](C)[C@@H](O[C@@H]2O[C@H](C)C[C@H](N(C)C)[C@H]2O)[C@](C)(O)C[C@](C)(O)C(=O)[C@H](C)[C@@H](O)[C@H]1C [P 15148] , give the reported MIC.
Result string: 6.25

----------
Test system: Streptococcus faecalis LRP 7
Experiment notes: Bacteriostatic power in solid medium (MIC), aerobic Gram positive
Format: cell-based
Stated conditions: Enterococcus faecalis, LRP7, read-out: minimum inhibiting concentration
Quantity name: MIC (µg/mL)
Give bare numbers, in µg/mL.

Compound	Target entity	Quantity name	Numeric result
CC[C@H]1OC(=O)[C@H](C)[C@@H](O[C@H]2C[C@@](C)(OC)[C@@H](O)[C@H](C)O2)[C@H](C)[C@@H](O[C@@H]2O[C@H](C)C[C@H](N(C)C)[C@H]2O)[C@](C)(O)C[C@@H](C)C(=O)[C@H](C)[C@@H](O)[C@]1(C)O [Erythromycin A, reference compound]	Streptococcus faecalis LRP 7	MIC	0.097
CO[C@H]1C[C@H](O[C@H]2[C@H](C)[C@@H](O[C@@H]3O[C@H](C)C[C@H](N(C)C)[C@H]3O)[C@](C)(O)C[C@@H](C)C(=O)[C@H](C)[C@@H](O)[C@@H](C)[C@@H](CCO)OC(=O)[C@@H]2C)O[C@@H](C)[C@@H]1O [P 15150]	Streptococcus faecalis LRP 7	MIC	6.25
CC[C@H]1OC(=O)[C@H](C)[C@@H](O[C@H]2C[C@H](OC)[C@@H](O)[C@H](C)O2)[C@H](C)[C@@H](O[C@@H]2O[C@H](C)C[C@H](N(C)C)[C@H]2O)[C@](C)(O)C[C@](C)(O)C(=O)[C@H](C)[C@@H](O)[C@H]1C [P 15148]	Streptococcus faecalis LRP 7	MIC	0.78

Okay, now this compound:
Query string: For the compound shown here, CC[C@H]1OC(=O)[C@H](C)[C@@H](O[C@H]2C[C@H](OC)[C@@H](O)[C@H](C)O2)[C@H](C)[C@@H](O[C@@H]2O[C@H](C)C[C@H](N(C)C)[C@H]2O)[C@](C)(O)C[C@@H](C)C(=O)[C@H](C)[C@@H](O)[C@H]1C [P 15149] , give the reported MIC.
Result string: 0.78

----------
Experiment notes: physchem
Type: physicochemical
Stated conditions: acidic environment, pH 4; read-out: t 1/2
Consider the following compounds; for each one, report its half-life.

Substance smiles	half-life
CC[C@H]1OC(=O)[C@H](C)[C@@H](O[C@H]2C[C@H](OC)[C@@H](O)[C@H](C)O2)[C@H](C)[C@@H](O[C@@H]2O[C@H](C)C[C@H](N(C)C)[C@H]2O)[C@](C)(O)C[C@@H](C)C(=O)[C@H](C)[C@@H](O)[C@H]1C	> 100 h

Dear reader, for each entry below, please note its half-life.
1. CC[C@H]1OC(=O)[C@H](C)[C@@H](O[C@H]2C[C@H](OC)[C@@H](O)[C@H](C)O2)[C@H](C)[C@@H](O[C@@H]2O[C@H](C)C[C@H](N(C)C)[C@H]2O)[C@](C)(O)C[C@](C)(O)C(=O)[C@H](C)[C@@H](O)[C@H]1C
2. CO[C@H]1C[C@H](O[C@H]2[C@H](C)[C@@H](O[C@@H]3O[C@H](C)C[C@H](N(C)C)[C@H]3O)[C@](C)(O)C[C@@H](C)C(=O)[C@H](C)[C@@H](O)[C@@H](C)[C@@H](CCO)OC(=O)[C@@H]2C)O[C@@H](C)[C@@H]1O

Result string:
["> 100 h", "> 100 h"]

----------
Experiment notes: physchem
Assay type: physicochemical
Stated conditions: acidic environment, pH 2; read-out: t 1/2
Quantity name: half-life

Query string: For the compound shown here, CO[C@H]1C[C@H](O[C@H]2[C@H](C)[C@@H](O[C@@H]3O[C@H](C)C[C@H](N(C)C)[C@H]3O)[C@](C)(O)C[C@@H](C)C(=O)[C@H](C)[C@@H](O)[C@@H](C)[C@@H](CCO)OC(=O)[C@@H]2C)O[C@@H](C)[C@@H]1O , give the reported half-life.
Result string: > 100 h
